- Tested system: PD-1/PD-L1 interaction (PD-1-Ig / PD-L1-His) (Homo sapiens (Human))
- Experiment: PD-1/PD-L1 Homogenous Time-Resolved Fluorescence (HTRF) binding assay
- Condition set: PD-1/PD-L1 HTRF binding assay; value given as range class; read-out: Range or IC50
Measurement type: IC50

>>> measurement("Cc1c(COc2cc(OCc3cncc(C#N)c3)c(CN3CCC[C@@]3(C)C(=O)O)cc2Cl)cccc1-c1ccc2scnc2c1")
"11 to 150 nM"
>>> measurement("Cc1c(COc2cc(OCc3cncc(C#N)c3)c(CNC(C)(CO)CO)cc2Cl)cncc1-c1cccc(OCCCN2CC[C@@H](O)C2)c1C")
"1 to 10 nM"
>>> measurement("Cc1c(COc2cc(OCc3cncc(C#N)c3)c(CN[C@](C)(CO)C(=O)O)cc2Cl)cccc1-c1ccc2ncccc2c1")
"151 to 10000 nM"
>>> measurement("CCC(CO)(CO)NCc1cc(Cl)c(OCc2nccc(-c3cccc(OCCCN4CC[C@@H](O)C4)c3C)c2C)cc1OCc1cncc(C#N)c1")
"1 to 10 nM"
>>> measurement("Cc1c(COc2cc(OCc3cncc(C#N)c3)c(CN[C@](C)(CO)C(=O)O)cc2Cl)cccc1-c1ccc2ccncc2c1")
"11 to 150 nM"
>>> measurement("Cc1c(COc2cc(OCc3cncc(C#N)c3)c(CN3CCCC[C@H]3C(=O)O)cc2Cl)cccc1-c1ccc2ocnc2c1")
"1 to 10 nM"

* * *

- Tested system: PD-1/PD-L1 interaction (PD-1-Ig / PD-L1-His) (Homo sapiens (Human), UniProt Q9NZQ7)
- Sequence (Q9NZQ7 other isoform, or with tags, fused parts or gaps): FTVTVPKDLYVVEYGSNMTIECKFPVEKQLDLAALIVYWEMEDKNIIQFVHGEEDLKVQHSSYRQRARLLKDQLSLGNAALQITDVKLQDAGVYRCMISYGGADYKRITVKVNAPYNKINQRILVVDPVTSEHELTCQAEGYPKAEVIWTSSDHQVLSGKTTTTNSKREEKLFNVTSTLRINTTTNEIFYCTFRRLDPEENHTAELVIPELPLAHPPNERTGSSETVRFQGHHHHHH
- Experiment: PD-1/PD-L1 Homogenous Time-Resolved Fluorescence (HTRF) binding assay
- Condition set: PD-1/PD-L1 HTRF binding assay; value given as range class; read-out: Range or IC50
pIC50: −log10 of the molar value.
Measurement type: pIC50

>>> measurement("Cc1c(COc2cc(OCc3cncc(C#N)c3)c(CN[C@](C)(CO)C(=O)O)cc2Cl)cccc1-c1ccc2nccnc2c1")
"8.00 to 9.00"
>>> measurement("Cc1c(COc2cc(OCc3cncc(C#N)c3)c(CN3CCC[C@@]3(C)C(=O)O)cc2Cl)cccc1-c1ccc2ccoc2c1")
"8.00 to 9.00"
>>> measurement("Cc1c(COc2cc(OCc3cncc(C#N)c3)c(C=O)cc2Cl)cccc1-c1ccc2oc(CCN3CC[C@@H](O)C3)nc2c1")
"5.00 to 6.82"
>>> measurement("Cc1c(COc2cc(OCc3cncc(C#N)c3)c(CN[C@](C)(CO)C(=O)O)cc2Cl)cccc1-c1ccc2oc(CCN3CC[C@@H](O)C3)nc2c1")
"8.00 to 9.00"
>>> measurement("Cc1c(COc2cc(OCc3cncc(C#N)c3)c(CN[C@](C)(CO)C(=O)O)cc2Cl)cccc1-c1cccn(CCCN2CC[C@@H](O)C2)c1=O")
"5.00 to 6.82"
>>> measurement("Cc1c(COc2cc(OCc3cncc(C#N)c3)c(CN[C@](C)(CO)C(=O)O)cc2Cl)cccc1-c1ccc2occc2c1")
"6.82 to 7.96"

* * *

- Tested system: PD-1/PD-L1 interaction (PD-1-Ig / PD-L1-His) (Homo sapiens (Human))
- Experiment: PD-1/PD-L1 Homogenous Time-Resolved Fluorescence (HTRF) binding assay
- Condition set: PD-1/PD-L1 HTRF binding assay; value given as range class; read-out: Range or IC50
Measurement type: IC50

>>> measurement("Cc1c(COc2cc(OCc3cncc(C#N)c3)c(CNC(C)(CO)CO)cc2Cl)cccc1-c1ccnc(OCCCN2CCCCC2)c1Cl")
"0.001 to 0.01 µM"
>>> measurement("Cc1c(COc2cc(OCc3cncc(C#N)c3)c(CN3CCCC[C@H]3C(=O)O)cc2Cl)cccc1-c1cccn(CCCN2CC[C@@H](O)C2)c1=O")
"0.151 to 10 µM"
>>> measurement("Cc1c(COc2cc(OCc3cncc(C#N)c3)c(CNC(C)(CO)CO)cc2Cl)cccc1-c1nccc(OCCCN2CC[C@@H](O)C2)c1Cl")
"0.001 to 0.01 µM"
>>> measurement("Cc1c(COc2cc(OCc3cncc(C#N)c3)c(CNC(C)(C)C(=O)O)cc2Cl)cccc1-c1ccc2occc2c1")
"0.011 to 0.15 µM"
>>> measurement("Cc1c(COc2cc(OCc3cncc(C#N)c3)c(CN[C@](C)(CO)C(=O)O)cc2Cl)cccc1-c1ccc2cnccc2c1")
"0.011 to 0.15 µM"
>>> measurement("Cc1c(OCCCN2CC[C@@H](O)C2)cccc1-c1ccnc(COc2cc(OCc3cncc(C#N)c3)c(CN3CCCC[C@H]3C(=O)O)cc2Cl)c1C")
"0.011 to 0.15 µM"
>>> measurement("Cc1c(COc2cc(OCc3cncc(C#N)c3)c(CNC(C)(CO)CO)cc2Cl)cccc1-c1nccc(OCCCO)c1Cl")
"0.001 to 0.01 µM"
>>> measurement("Cc1c(COc2cc(OCc3cncc(C#N)c3)c(CNC(C)(C)C(=O)O)cc2Cl)cccc1-c1ccc2scnc2c1")
"0.011 to 0.15 µM"
>>> measurement("CCC(CO)(CO)NCc1cc(Cl)c(OCc2nccc(-c3cccc(OCCCN4CCCCC4)c3C)c2C)cc1OCc1cncc(C#N)c1")
"0.001 to 0.01 µM"
>>> measurement("Cc1c(COc2cc(OCc3cncc(C#N)c3)c(CN[C@](C)(CO)C(=O)O)cc2Cl)cccc1-c1ccc2ocnc2c1")
"0.001 to 0.01 µM"
>>> measurement("Cc1c(OCCCN2CC[C@@H](O)C2)cccc1-c1ccnc(COc2cc(OCc3cncc(C#N)c3)c(CN[C@@](C)(CO)C(=O)O)cc2Cl)c1C")
"0.001 to 0.01 µM"
>>> measurement("Cc1c(COc2cc(OCc3cncc(C#N)c3)c(CN3CCCC[C@H]3C(=O)O)cc2Cl)cccc1-c1ccc2nccnc2c1")
"0.011 to 0.15 µM"

* * *

- Tested system: PD-1/PD-L1 interaction (PD-1-Ig / PD-L1-His) (Homo sapiens (Human))
- Experiment: PD-1/PD-L1 Homogenous Time-Resolved Fluorescence (HTRF) binding assay
- Condition set: PD-1/PD-L1 HTRF binding assay; value given as range class; read-out: Range or IC50
Measurement type: IC50

>>> measurement("Cc1c(COc2cc(OCc3cncc(C#N)c3)c(CN[C@@](C)(CO)C(=O)O)cc2Cl)cccc1-c1ccc2nccnc2c1 [Example 1036]")
"1 to 10 nM"
>>> measurement("Cc1c(COc2cc(OCc3cncc(C#N)c3)c(CN[C@@](C)(CO)C(=O)O)cc2Cl)cccc1-c1cccn(CCCN2CC[C@@H](O)C2)c1=O [Example 1037]")
"151 to 10000 nM"
>>> measurement("Cc1c(COc2cc(OCc3cncc(C#N)c3)c(CN[C@](C)(CO)C(=O)O)cc2Cl)cccc1-c1ccc2ccoc2c1 [Example 1019]")
"1 to 10 nM"

* * *

- Tested system: PD-1/PD-L1 interaction (PD-1-Ig / PD-L1-His) (Homo sapiens (Human), UniProt Q9NZQ7)
- Experiment: PD-1/PD-L1 Homogenous Time-Resolved Fluorescence (HTRF) binding assay
- Condition set: PD-1/PD-L1 HTRF binding assay; value given as range class; read-out: Range or IC50
Measurement type: IC50

>>> measurement("Cc1c(COc2cc(OCc3cncc(C#N)c3)c(CN[C@](C)(CO)C(=O)O)cc2Cl)cccc1-c1ccc2scnc2c1")
"1 to 10 nM"
>>> measurement("Cc1c(COc2cc(OCc3cncc(C#N)c3)c(CN3CCCC[C@H]3C(=O)O)cc2Cl)cccc1-c1cnc2ccccc2c1")
"151 to 10000 nM"
>>> measurement("Cc1c(COc2cc(OCc3cncc(C#N)c3)c(CN[C@@H](CCCNC(=N)N)C(=O)O)cc2Cl)cccc1-c1ccc2occc2c1")
"151 to 10000 nM"
>>> measurement("Cc1c(COc2cc(OCc3cncc(C#N)c3)c(CN[C@H](CO)C(=O)O)cc2Cl)cccc1-c1ccc2c(c1)ncn2CCN(C)C")
"151 to 10000 nM"
>>> measurement("Cc1c(COc2cc(OCc3cncc(C#N)c3)c(CN3CCCC[C@H]3C(=O)O)cc2Cl)cccc1-c1ccc2oc(CCN3CC[C@@H](O)C3)nc2c1")
"1 to 10 nM"
>>> measurement("Cc1c(COc2cc(OCc3cncc(C#N)c3)c(CN[C@](C)(CO)C(=O)O)cc2Cl)cccc1-c1cc2ccccc2cn1")
"151 to 10000 nM"
>>> measurement("Cc1nn(-c2cccc(COc3cc(OCc4cncc(C#N)c4)c(CNCCN4CC[C@@H](O)C4)cc3Cl)c2C)c(C)c1CNCCN1CC[C@@H](O)C1")
"151 to 10000 nM"
>>> measurement("Cc1c(COc2cc(OCc3cncc(C#N)c3)c(CN[C@](C)(CO)C(=O)O)cc2Cl)cccc1-c1ccc2ccccc2n1")
"151 to 10000 nM"
>>> measurement("Cc1nn(-c2cccc(COc3cc(OCc4cncc(C#N)c4)c(CN4CC[C@@H](O)C4)cc3Cl)c2C)c(C)c1CN1CC[C@@H](O)C1")
"151 to 10000 nM"
>>> measurement("Cc1c(COc2cc(OCc3cncc(C#N)c3)c(CN[C@H](CO)C(=O)O)cc2Cl)cccc1-c1ccc2nccnc2c1")
"1 to 10 nM"
>>> measurement("Cc1c(COc2cc(OCc3cncc(C#N)c3)c(CNC(C)(C)C(=O)O)cc2Cl)cccc1-c1ccc2ncoc2c1")
"1 to 10 nM"
>>> measurement("Cc1c(COc2cc(OCc3cncc(C#N)c3)c(CN[C@](C)(CO)C(=O)O)cc2Cl)cccc1-c1cnc2ccccc2c1")
"151 to 10000 nM"
>>> measurement("Cc1c(COc2cc(OCc3cncc(C#N)c3)c(CN[C@](C)(CO)C(=O)O)cc2Cl)cccc1-c1ccc2cccnc2c1")
"11 to 150 nM"
>>> measurement("Cc1c(COc2cc(OCc3cncc(C#N)c3)c(CN[C@](C)(CO)C(=O)O)cc2Cl)cccc1-c1ccc2ncsc2c1")
"11 to 150 nM"
>>> measurement("Cc1c(OCCCN2CCCCC2)cccc1-c1ccnc(COc2cc(OCc3cncc(C#N)c3)c(CN[C@@](C)(CO)C(=O)O)cc2Cl)c1C")
"1 to 10 nM"
>>> measurement("Cc1c(COc2cc(OCc3cncc(C#N)c3)c(CN3CCCC[C@H]3C(=O)O)cc2Cl)cccc1-c1cccc(OCCCN2CC[C@@H](O)C2)n1")
"151 to 10000 nM"
>>> measurement("Cc1c(COc2cc(OCc3cncc(C#N)c3)c(CO)cc2Cl)cccc1-c1cccc(OCCCN2CC[C@@H](O)C2)n1")
"151 to 10000 nM"
>>> measurement("Cc1c(COc2cc(OCc3cncc(C#N)c3)c(CN3CCCC[C@@H]3C(=O)O)cc2Cl)cccc1-c1ccc2nccnc2c1")
"11 to 150 nM"
>>> measurement("Cc1c(COc2cc(OCc3cncc(C#N)c3)c(CNC(C)(C)C(=O)O)cc2Cl)cccc1-c1ccc2ccoc2c1")
"11 to 150 nM"
>>> measurement("Cc1c(COc2cc(OCc3cncc(C#N)c3)c(CN3CCCC[C@H]3C(=O)O)cc2Cl)cncc1-c1cccc(OCCCN2CC[C@@H](O)C2)c1C")
"1 to 10 nM"
>>> measurement("Cc1nn(CCCCN2CC[C@H](O)C2)c(C)c1-c1cccc(COc2cc(OCc3cncc(C#N)c3)c(CN[C@](C)(CO)C(=O)O)cc2Cl)c1C")
"151 to 10000 nM"
>>> measurement("Cc1c(COc2cc(OCc3cncc(C#N)c3)c(CN[C@@H](CO)C(=O)O)cc2Cl)cccc1-c1cccn(CCCN2CC[C@@H](O)C2)c1=O")
"151 to 10000 nM"
>>> measurement("Cc1c(COc2cc(OCc3cncc(C#N)c3)c(CN[C@](C)(CO)C(=O)O)cc2Cl)cccc1-c1ccc2ncoc2c1")
"11 to 150 nM"
>>> measurement("Cc1nn(-c2cccc(COc3cc(OCc4cncc(C#N)c4)c(CN[C@](C)(CO)C(=O)O)cc3Cl)c2C)c(C)c1CN1CC[C@@H](O)C1")
"151 to 10000 nM"
>>> measurement("Cc1c(OCCCN2CCCCC2)cccc1-c1ccnc(COc2cc(OCc3cncc(C#N)c3)c(CN3CCCC[C@H]3C(=O)O)cc2Cl)c1C")
"11 to 150 nM"

This collection of values is drawn from patent US10590105B2.
